TEST SYSTEM: factor Xa (Homo sapiens, UniProt P00742)
Sequence (P00742 235-488 limits assumed): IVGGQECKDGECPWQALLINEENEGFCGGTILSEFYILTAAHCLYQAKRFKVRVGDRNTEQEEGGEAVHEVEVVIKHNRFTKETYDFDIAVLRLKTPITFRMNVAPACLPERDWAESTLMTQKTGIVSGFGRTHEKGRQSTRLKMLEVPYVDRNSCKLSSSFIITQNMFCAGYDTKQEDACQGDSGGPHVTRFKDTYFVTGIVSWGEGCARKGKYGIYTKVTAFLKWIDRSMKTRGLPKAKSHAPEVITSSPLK
Sequence (P00742 41-179 limits assumed): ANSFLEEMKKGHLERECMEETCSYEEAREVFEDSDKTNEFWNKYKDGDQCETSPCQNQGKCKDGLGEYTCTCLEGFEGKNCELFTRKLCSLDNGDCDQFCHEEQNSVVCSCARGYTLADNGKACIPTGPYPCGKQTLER
EXPERIMENTAL DETAILS: Factor Xa assay (Test 1a), chromogenic
Assay type: biochemical
Parameters: purchased Enzyme Research Laboratories, Inc; South Bend, Ind
CONDITION LABEL: in vitro factor Xa assay Test 1a; human factor Xa 0.5 nM, substrate S-2765 140 μM, 25° C.; Ki from IC50 corrected for substrate competition
Where a name gives a salt, the structure may show the parent alone.
Consider the following molecules and their measured Ki readings.
RESULT TYPE: Ki (nM)

{"MOLECULE": "N=C(N)NCCC[C@H](NC(=O)C(NC(=O)C(Cc1ccc(C(=N)N)cc1)C1CCCCC1)C1CCCCC1)C(=O)NCc1ccncc1 (stereo partly drawn) [Example 194, trifluoroacetic acid salt]", "RECORDED MEASUREMENT": 34}
{"MOLECULE": "CCCC[C@H](NC(=O)C(Cc1ccc(C(=N)N)cc1)c1cccnc1)C(=O)N[C@@H](CCCNC(=N)N)C(N)=O (mixture of isomers) [Example 23, trifluoroacetic acid salt]", "RECORDED MEASUREMENT": 2.8}
{"MOLECULE": "CN(C(=O)C(Cc1ccc(C(=N)N)cc1)c1cccnc1)[C@@H](Cc1ccccc1)C(=O)N[C@@H](CCCNC(=N)N)C(N)=O (mixture of isomers) [Example 26, trifluoroacetic acid salt]", "RECORDED MEASUREMENT": 1070}

These entries and their values trace back to patent US6759420B1.
